experimental target: HCV RNA-dependent RNA polymerase NS5B (Δ21) (Hepatitis C virus genotype 1b, UniProt P26663)
Sequence (P26663 2420-2989, stated change not applied): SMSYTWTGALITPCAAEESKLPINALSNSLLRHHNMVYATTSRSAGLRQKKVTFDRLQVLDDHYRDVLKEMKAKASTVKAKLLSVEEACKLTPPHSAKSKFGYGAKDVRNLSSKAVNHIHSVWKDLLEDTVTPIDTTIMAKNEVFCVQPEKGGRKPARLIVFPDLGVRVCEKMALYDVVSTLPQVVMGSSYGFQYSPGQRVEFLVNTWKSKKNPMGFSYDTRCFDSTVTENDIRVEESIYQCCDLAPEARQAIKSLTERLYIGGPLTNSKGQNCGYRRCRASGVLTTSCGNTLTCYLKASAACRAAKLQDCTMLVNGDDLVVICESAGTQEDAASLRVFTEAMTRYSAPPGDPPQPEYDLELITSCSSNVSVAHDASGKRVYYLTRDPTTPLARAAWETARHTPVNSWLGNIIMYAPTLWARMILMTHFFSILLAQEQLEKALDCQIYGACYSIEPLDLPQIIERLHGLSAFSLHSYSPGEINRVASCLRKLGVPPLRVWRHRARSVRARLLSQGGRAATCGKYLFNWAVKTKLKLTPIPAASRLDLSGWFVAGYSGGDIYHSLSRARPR
assay notes: Assay for HCV RNA-dependent RNA polymerase activity (SPA, [3H]-GTP incorporation)
Assay type: biochemical
condition set: Δ21 Activity (IC50 μM), 50 nM NS5B (Δ21), class symbols
readout name: IC50

compound: O=C(Cn1nc(C(=O)O)cc1C(=O)Nc1ccc(F)cc1OCC1CCCCC1)N[C@H]1CCCC[C@@H]1OCc1ccccc1 [Compound 30]
result: 0.05 to 0.1 µM

compound: Cc1ccc(OCc2ccccc2)c(NC(=O)c2nc(C(=O)O)nn2CC(=O)N[C@H]2CCCC[C@@H]2OCc2ccccc2)c1
result: 0.05 to 0.1 µM

compound: O=C(Cn1nc(C(=O)O)cc1C(=O)N[C@H]1CCCC[C@@H]1OCc1ccccc1)Nc1ccc2c(c1)OCO2
result: > 1 µM

compound: O=C(Cn1nc(C(=O)NCC(c2ccccc2)c2ccccc2)cc1C(=O)N[C@H]1CCCC[C@@H]1OCc1ccccc1)NC1CCCC[C@@H]1OCc1ccccc1 (stereo partly shown)
result: > 1 µM

compound: CCOC(CCCNC(=O)c1cc(C(=O)N[C@H]2CCCC[C@@H]2OCc2ccccc2)n(CC(=O)NC2CCCC[C@@H]2OCc2ccccc2)n1)OCC (stereo partly shown)
result: > 1 µM

compound: N#Cc1cc(C(=O)N[C@H]2CCCC[C@@H]2OCc2ccccc2)n(CC(=O)N[C@H]2CCCC[C@@H]2OCc2ccccc2)n1 (stereo in doubt)
result: > 1 µM

compound: O=C(Cn1nc(C(=O)NC2CCN(Cc3ccccc3)CC2)cc1C(=O)N[C@H]1CCCC[C@@H]1OCc1ccccc1)N[C@H]1CCCC[C@@H]1OCc1ccccc1
result: > 1 µM

compound: O=C(Cn1nc(-c2nnn[nH]2)cc1C(=O)Nc1ccccc1OCc1ccccc1)N[C@H]1CCCC[C@@H]1OCc1ccccc1
result: 0.05 to 0.1 µM

compound: COc1cccc(NC(=O)c2cc(C(=O)N[C@H]3CCCC[C@@H]3OCc3ccccc3)n(CC(=O)N[C@H]3CCCC[C@@H]3OCc3ccccc3)n2)c1
result: < 0.05 µM

compound: O=C(Cn1nc(NS(=O)(=O)c2ccc(Cl)s2)cc1C(=O)N[C@H]1CCCC[C@@H]1OCc1ccccc1)N[C@H]1CCCC[C@@H]1OCc1ccccc1
result: 0.05 to 0.1 µM

compound: O=C(Cn1nc(C(=O)Nc2nnn[nH]2)cc1C(=O)Nc1ccccc1OCc1ccccc1)N[C@H]1CCCC[C@@H]1OCc1ccccc1
result: 0.05 to 0.1 µM

compound: Cc1ccc(OCC2CCCC2)c(NC(=O)c2cc(C(=O)O)nn2CC(=O)N[C@H]2CCCC[C@@H]2OCc2ccccc2)c1
result: < 0.05 µM

compound: Nc1ccccc1Oc1ccccc1CNC(=O)c1cc(C(=O)O)nn1CC(=O)N[C@H]1CCCC[C@@H]1OCc1ccccc1
result: > 1 µM

---

Entries annotated with measured IC50
experimental target: HCV RNA-dependent RNA polymerase NS5B (Δ21) (Hepatitis C virus genotype 1b, UniProt P26663)
assay notes: Assay for HCV RNA-dependent RNA polymerase activity (SPA, [3H]-GTP incorporation)
Format: biochemical
condition set: read-out: Δ21 Activity (IC50 μM); 50 nM NS5B (Δ21), class symbols
readout name: IC50

compound: CN(C(=O)Cn1nc(C(=O)O)cc1C(=O)N[C@H]1CCCC[C@@H]1OCc1ccccc1)[C@H]1CCCC[C@@H]1OCc1ccccc1 [Compound 123]
readout name: IC50
result: 0.1 to 1 µM

compound: O=C(Cn1nc(O)cc1C(=O)N[C@H]1CCCC[C@@H]1OCc1ccccc1)N[C@H]1CCCC[C@@H]1OCc1ccccc1 [Compound 69]
readout name: IC50
result: 0.1 to 1 µM

compound: O=C(Cn1nc(C(=O)NCCc2ccc(Cl)cc2)cc1C(=O)N[C@H]1CCCC[C@@H]1OCc1ccccc1)N[C@H]1CCCC[C@@H]1OCc1ccccc1 [Compound 129]
readout name: IC50
result: 0.1 to 1 µM

Recorded values, source patent US7425640B2.
